target.or.test.system: T1, recombinant human αvβ8 integrin extracellular domains (human, UniProt P06756 1-992; P26012 1-684, Biotinylated on the Avitag (tag not in the letters); interchain disulfide between the coiled-coils (not in the letters).)
T1 construct: Soluble heterodimer co-expressed in Expi293 cells; also called hαvβ8
test.details: AlphaLISA blocking of human LAP binding
The following binders are shown together with reported pIC50 values.
Schema: pIC50 number; meaning minus log10 of the concentration expressed in molar units.

Worked examples, 2 binders total:
Ab-30 (antibody, V domains shown) VH: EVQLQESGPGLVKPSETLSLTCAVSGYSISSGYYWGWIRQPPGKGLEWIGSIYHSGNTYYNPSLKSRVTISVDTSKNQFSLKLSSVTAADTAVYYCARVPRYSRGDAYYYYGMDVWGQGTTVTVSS VL: DIQMTQSPSTLSASVGDRVTITCRASQSISSWLAWYQQKPGKAPKLLIYKASSLESGVPSRFSGSGSGTEFTLTISSLQPDDFATYYCQQVKIYPPYTFGGGTKVEIK    7.70
Ab-29 (antibody, V domains shown) VH: ELQLQESGPGLVKPSETLSLTCTVSGGSISSNSYYWGWIRQPPGKGLEWIGSIYYSGSTYYNPSLKSRVTISVDTSKNQFSLKLSSVTAADTAVYYCARVRRVAGRGDSYYYYYGMDVWGQGTTVTVSS VL: DIQMTQSPSSVSASVGDRVTITCRASQGISRWLAWYQQKPGKAPKLLIYAASSLQSGVPSRFSGSGSGTDFTLTISSLQPEDFATYYCQQAISHPWTFGGGTKVEIK    6.70

Query binder follows.
Query: Given the binder Ab-31 (antibody, V domains shown) VH: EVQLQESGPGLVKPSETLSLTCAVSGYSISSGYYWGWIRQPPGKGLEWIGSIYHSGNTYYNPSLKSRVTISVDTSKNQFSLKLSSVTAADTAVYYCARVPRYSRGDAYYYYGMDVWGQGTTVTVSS VL: DIQMTQSPSTLSASVGDRVTITCRASQSIGSWLAWYQQKPGKAPKLLIYKASSLESGVPSRFSGSGSGTEFTLTISSLQPDDFATYYCQQSGPYPWTFGGGTKVEIK , what is its reported pIC50?
Response: 7.32
